target_system: Amine oxidase [flavin-containing] B (Homo sapiens, UniProt P27338)
Sequence (P27338 whole entry): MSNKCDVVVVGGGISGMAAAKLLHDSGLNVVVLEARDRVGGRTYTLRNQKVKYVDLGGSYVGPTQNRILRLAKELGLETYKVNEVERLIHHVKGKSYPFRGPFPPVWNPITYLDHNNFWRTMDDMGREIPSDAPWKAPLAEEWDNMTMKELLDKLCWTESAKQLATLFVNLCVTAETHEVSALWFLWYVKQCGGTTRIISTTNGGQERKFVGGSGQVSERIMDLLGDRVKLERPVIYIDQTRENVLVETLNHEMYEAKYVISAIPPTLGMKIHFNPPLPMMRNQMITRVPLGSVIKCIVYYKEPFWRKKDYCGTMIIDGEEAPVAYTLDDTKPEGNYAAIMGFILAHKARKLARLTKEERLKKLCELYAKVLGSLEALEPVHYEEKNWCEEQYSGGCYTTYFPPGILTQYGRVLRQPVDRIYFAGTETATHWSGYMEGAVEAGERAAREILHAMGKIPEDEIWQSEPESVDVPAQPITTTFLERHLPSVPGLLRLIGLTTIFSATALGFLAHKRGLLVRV
So basically every entry gets a class from its IC50, ranges being low: < 600 nM; intermediate: ≥ 600 nM and < 5000 nM; high: ≥ 5000 nM

Worked set:
compound=O=C(/C=C/c1ccccc1Cl)Nc1cccc(O)c1 answer_label=high
compound=O=C(/C=C/c1ccccc1C(F)(F)F)Nc1ccc(O)cc1 answer_label=high
compound=COc1ccc(OC(=O)/C=C/c2ccccc2Cl)cc1 answer_label=intermediate
compound=COc1ccccc1C(=O)/C=C/c1ccccc1 answer_label=high
compound=COc1ccccc1C(=O)/C=C/c1ccccc1C(F)(F)F answer_label=low
compound=COc1ccc(NC(=O)/C=C/c2ccccc2C(F)(F)F)cc1 answer_label=high
compound=O=C(/C=C/c1ccc(C(F)(F)F)cc1)Nc1ccccc1F answer_label=low
compound=O=C(/C=C/c1ccccc1C(F)(F)F)Nc1cccc(O)c1 answer_label=high
compound=COc1ccc(C(=O)/C=C/c2cccc(OC)c2)cc1 answer_label=intermediate
compound=O=C(/C=C/c1ccccc1Cl)Nc1ccccc1 answer_label=intermediate

Please find the next compound below.
### Prompt Quick check: band for O=C(/C=C/c1ccc(C(F)(F)F)cc1)Nc1cccc(F)c1
### Response low

The measurements presented in this section are drawn from ChEMBL document CHEMBL3612067.
